- Protocol summary: Intrinsic clearance in monkey liver microsomes
- Type: ADME, Macaca mulatta, Microsome
- Test conditions: rhesus monkey
Property measured: CLint scaled
Please give the number followed by its unit.

Task: Query (compound): Cc1cc2ncc(C(=O)NCC(C)(C)NCC(=O)N3CCC[C@H]3C#N)cn2n1.Cl [ANAGLIPTIN HYDROCHLORIDE] ; field requested: CLint scaled
Result: 8.33 mL/min/kg

* * *

- Protocol summary: Drug excretion in bile-duct cannulated Sprague-Dawley rat urine assessed as unchanged drug at 1 mg/kg, iv measured over 24 hrs
- Format: ADME, organism-based
- Set-up: dose 1 mg/kg, route intravenous
- Test conditions: read-out: AE
Property measured: dose excreted at 24 h
Please give the number followed by its unit.

Task: Query (molecule): Cc1cc2ncc(C(=O)NCC(C)(C)NCC(=O)N3CCC[C@H]3C#N)cn2n1.Cl [ANAGLIPTIN HYDROCHLORIDE] ; field requested: dose excreted at 24 h
Result: 30%
